# Tested on: Fusarium virguliforme (Fv)
# assay: In vitro pathogen growth inhibition assay, Fv
# Type: cell-based
# measurement_setup: concentration sufficient to ≥90% inhibition of growth, 48 hours vs 2% DMSO control, read-out: Compound Concentration (ppm) for ≥90% inhibition, Fv
property_label: IC90 (µg/mL)
Reply numerically in µg/mL, unit not repeated.

Please give the measured IC90 for this molecule: `COc1ccc(F)cc1[C@H](Cn1c(=O)n([C@@H](C)C(N)=O)c(=O)c2c(C)c(-n3nccn3)sc21)OCCC#N` 10

Please do the same for `COc1ccc(F)cc1[C@H](Cn1c(=O)n(C(C)(C)C(=O)NC(C)C)c(=O)c2c(C)c(-n3nccn3)sc21)OC(=O)CO` as well. 10

====

Catalogue of IC90 values
# Tested on: Rhizoctonia solani (Rs)
# assay: In vitro pathogen growth inhibition assay, Rs (mycelial plugs)
# Format: cell-based
# measurement_setup: Rhizoctonia solani, 48 h, ≥90% growth inhibition; mycelial plugs; 48 hours; vs 2% DMSO control; read-out: Compound Concentration (ppm) sufficient for ≥90% inhibition of Rs
# value in µg/mL; strip the unit string

Field: example entries. Status: answers known.
record_smiles=CCc1ccc(F)cc1[C@H](Cn1c(=O)n(C(C)(C)C(=O)NC(C)C)c(=O)c2c(C)c(-n3nccn3)sc21)OCC(C)(C)C#N result_units=µg/mL data_value=0.08
record_smiles=COc1ccccc1[C@H](Cn1c(=O)n(C(C)(C)C(=O)NC(C)C)c(=O)c2c(C)c(-n3nccn3)sc21)O[C@H]1CC[C@@H](O)CC1 result_units=µg/mL data_value=0.08
record_smiles=Cc1c(-n2nccn2)sc2c1c(=O)n(C(C)(C)C(=O)NC(C)C)c(=O)n2C[C@H](OCCC#N)c1ccccc1O result_units=µg/mL data_value=10
record_smiles=COc1ccc(F)cc1[C@H](Cn1c(=O)n(C(C)(C)C(=O)NC(C)C)c(=O)c2c(C)c(-n3cccn3)sc21)OCCC#N result_units=µg/mL data_value=0.08
record_smiles=CCc1ccc(F)cc1[C@H](Cn1c(=O)n(C(C)(C)C(=O)NC(C)C)c(=O)c2c(C)c(-n3nccn3)sc21)O[C@H]1C[C@@H](O)C1 result_units=µg/mL data_value=0.08

Entry under review: `COc1ccc(F)cc1[C@H](Cn1c(=O)n(C(C)(C)C(=O)N2CCCCC2)c(=O)c2c(C)c(-n3cccn3)sc21)OC1CCOCC1` . Reported IC90? 10

====

# Tested on: Botrtyis cinerea (Bc)
# assay: In vitro pathogen growth inhibition assay, Bc
# Type: cell-based
# measurement_setup: 48 h, ≥90% growth inhibition; 48 hours; vs 2% DMSO control; read-out: Compound Concentration (ppm) sufficient for ≥90% inhibition of Bc
Consider the following compounds and their measured IC90 readings.
Lab book: enter the figure in µg/mL, no units written.

Would you please look over these solved cases?
compound="CCNC(=O)[C@H](C)n1c(=O)c2c(C)c(-n3nccn3)sc2n(C[C@H](OCCC#N)c2cc(F)ccc2OC)c1=O [Compound I-290]" data_value=2
compound="CCOC(=O)c1sc2c(c1C)c(=O)n([C@@H](C)C(=O)NC(C)C)c(=O)n2C[C@H](OCCC#N)c1cc(F)ccc1OC [Compound I-219]" data_value=2
compound="COc1ccc(F)cc1[C@H](Cn1c(=O)n(C(C)(C)C(=O)NC(C)C)c(=O)c2c(C)c(-n3nccn3)sc21)OC[C@@H](C)C#N [Compound I-211]" data_value=0.4

Suppose we examine the compound COCCO[C@@H](Cn1c(=O)n([C@H](C)C(=O)NC(C)C)c(=O)c2c(C)c(-n3cccn3)sc21)c1cc(F)ccc1OC [Compound I-310] ; what IC90 value has been reported? 2

Continue with COc1ccc(F)cc1[C@H](Cn1c(=O)n(C(C)(C)C(=O)N2CCCCC2)c(=O)c2c(C)c(-n3cccn3)sc21)OC1CCOCC1 [Compound I-166] 2

Let us now turn to COc1ccc(F)cc1[C@H](Cn1c(=O)n([C@@H](C)C(=O)N(C)C(C)C)c(=O)c2c(C)c(-n3cccn3)sc21)OCCO [Compound I-244] 2

====

# Tested on: Phytophthora capsici (Pc)
# assay: In vitro pathogen growth inhibition assay, Pc
# Format: cell-based
# measurement_setup: 48 h, ≥90% inhibition, 48 hours vs 2% DMSO control, read-out: Compound Concentration (ppm) sufficient for ≥90% inhibition of growth, Pc
property_label: IC90

Example entries begin here.
molecule="COCCO[C@@H](Cn1c(=O)n(C(C)C(=O)N2CCCC2)c(=O)c2c(C)c(-n3nccn3)sc21)c1cc(F)ccc1OC (stereo partly drawn)" data_value="50 µg/mL"
molecule=COc1ccccc1[C@H](Cn1c(=O)n(C(C)(C)C(=O)N2CCCC2)c(=O)c2c(C)c(-n3cccn3)sc21)OC1CCOCC1 data_value="> 50 µg/mL"
molecule=COc1ccc(F)cc1[C@H](Cn1c(=O)n(C(C)(C)C(=O)NC(C)C)c(=O)c2c(C)c(-n3nccn3)sc21)OCCC#N data_value="≥ 2 µg/mL"
molecule="COCCO[C@@H](Cn1c(=O)n(C(C)C(=O)NC(C)C)c(=O)c2c(C)c(-n3nccn3)sc21)c1cc(F)ccc1OC (stereo partly drawn)" data_value="10 µg/mL"
molecule=COc1ccccc1[C@H](Cn1c(=O)n(C(C)(C)C(=O)NCC(C)C)c(=O)c2c(C)c(-n3nccn3)sc21)OC1CCOCC1 data_value="> 50 µg/mL"

Let's switch to this molecule now.
Return reported IC90; argument: `COc1ccc(F)cc1[C@H](Cn1c(=O)n(C(C)(C)C(=O)NC(C)C)c(=O)c2c(C)c(-c3ncco3)sc21)OC1CCOCC1` > 50 µg/mL

====

# System: Rhizoctonia solani (Rs)
# assay: In vitro pathogen growth inhibition assay, Rs (mycelial plugs)
# Type: cell-based
# measurement_setup: Rhizoctonia solani, 48 h, ≥90% growth inhibition; mycelial plugs; 48 hours; vs 2% DMSO control; read-out: Compound Concentration (ppm) sufficient for ≥90% inhibition of Rs
// reported IC90 per item
// units = µg/mL; emit number, no label

Past entries and their recorded results:
record_smiles=COc1ccc(F)cc1[C@H](Cn1c(=O)n([C@H](C)C(=O)N(C)C(C)C)c(=O)c2c(C)c(-n3cccn3)sc21)OCCO data_value=2
record_smiles=COc1ccc(F)cc1[C@H](Cn1c(=O)n(C(C)(C)C(=O)NC(C)C)c(=O)c2c(C)c(-n3cccn3)sc21)OCCS(C)(=O)=O data_value=2
record_smiles=CCNC(=O)C(C)(C)n1c(=O)c2c(C)c(-n3nccn3)sc2n(C[C@H](OCCC#N)c2cc(F)ccc2OC)c1=O data_value=0.08
record_smiles=COc1ccc(F)cc1[C@H](Cn1c(=O)n([C@H](C)C(=O)NC(C)C)c(=O)c2c(C)c(-n3nccn3)sc21)OCC(C)(C)C#N data_value=0.08
record_smiles=COc1ccc(F)cc1[C@H](Cn1c(=O)n(C(C)(C)C(N)=O)c(=O)c2c(C)c(-n3nccn3)sc21)OCC(C)C data_value=2

What measured IC90 goes with `CCOC(=O)c1sc2c(c1C)c(=O)n(C(C)(C)C(=O)NC(C)C)c(=O)n2CCc1cc(F)ccc1OCCC#N` ? 50

Input `COCCO[C@@H](Cn1c(=O)n([C@@H](C)C(=O)NC(C)C)c(=O)c2c(C)c(-n3nccn3)sc21)c1cc(F)ccc1OC` 10

Request: `COCCO[C@@H](Cn1c(=O)n(C(C)(C)C(=O)N2CCCC2)c(=O)c2c(C)c(-n3nccn3)sc21)c1cc(F)ccc1OC` 50

Can you handle `COc1ccc(F)cc1[C@H](Cn1c(=O)n(C(C)(C)C(=O)NC(C)C)c(=O)c2c(C)c(-n3nccn3)sc21)OCCS(C)(=O)=O` next? 0.08

How about `COc1ccccc1[C@H](Cn1c(=O)n([C@H](C)C(=O)NC(C)C)c(=O)c2c(C)c(-n3cccn3)sc21)OCCC#N` ? 2

Thanks! And `COc1ccc(F)cc1[C@H](Cn1c(=O)n(C(C)(C)C(=O)NC(C)C)c(=O)c2c(C)c(-n3cccn3)sc21)OC[C@H](C)C#N` ? 0.4

Next compound: `COc1ccc(F)cc1[C@H](Cn1c(=O)n([C@H](C)C(N)=O)c(=O)c2c(C)c(-n3nccn3)sc21)OCC(C)(C)C#N` 2

====

In this section, each of the compounds is paired with its reported IC90.
# Tested on: Botrtyis cinerea (Bc)
# assay: In vitro pathogen growth inhibition assay, Bc
# Format: cell-based
# measurement_setup: 48 h, ≥90% growth inhibition; 48 hours; vs 2% DMSO control; read-out: Compound Concentration (ppm) sufficient for ≥90% inhibition of Bc
Please give a number only; it is taken to be in µg/mL.

Entry CCc1ccc(F)cc1[C@H](Cn1c(=O)n(C(C)(C)C(=O)NC(C)C)c(=O)c2c(C)c(-n3nccn3)sc21)OC[C@@H](C)C#N [Compound I-281] : reported IC90 = ? 0.08

Same lookup for COc1ccc(F)cc1[C@H](Cn1c(=O)n([C@H](C)C(N)=O)c(=O)c2c(C)c(-n3nccn3)sc21)OCCC#N [Compound I-200] , please. 2

Same question for COc1ccc(F)cc1CCn1c(=O)n(C(C)(C)C(=O)NC(C)C)c(=O)c2c(C)c(-n3nccn3)sc21 [Compound I-296] please. 2
